Taken from BigSolDB 2.1.

Settings: in 2-methoxyethanol, 293.15 K
Result type: solubility (mole fraction)
Answers are plain numbers.

q: Please report the recorded solubility (mole fraction) for O=c1cc(CO)occ1O .
a: 0.0287

====

Settings: in DMF, 288.15 K
Result type: solubility (mole fraction)

q: Please report the recorded solubility (mole fraction) for O=c1cc(CO)occ1O .
a: 0.114

====

Details: in acetone, 303.15 K
Result type: solubility (mole fraction)
Give bare numbers.

q: Please report the recorded solubility (mole fraction) for O=c1cc(CO)occ1O .
a: 0.00556

====

Conditions: in n-propanol, 323.15 K
Result type: solubility (mole fraction)
Numbers only.

q: Please report the recorded solubility (mole fraction) for O=c1cc(CO)occ1O .
a: 0.0139

====

Conditions: in water, 308.15 K
Result type: solubility (mole fraction)
Answers are plain numbers.

q: Please report the recorded solubility (mole fraction) for O=c1cc(CO)occ1O .
a: 0.00873

====

Conditions: in DMSO, 323.15 K
Result type: solubility (mole fraction)

q: Please report the recorded solubility (mole fraction) for O=c1cc(CO)occ1O .
a: 0.303

====

Conditions: in ethyl acetate, 318.15 K
Result type: solubility (mole fraction)
Answers are plain numbers.

q: Please report the recorded solubility (mole fraction) for O=c1cc(CO)occ1O .
a: 0.00411

====

Conditions: in acetic acid, 323.15 K
Result type: solubility (mole fraction)
Numbers only.

q: Please report the recorded solubility (mole fraction) for O=c1cc(CO)occ1O .
a: 0.0425

====

Conditions: in acetone, 308.15 K
Result type: solubility (mole fraction)
Give bare numbers.

q: Please report the recorded solubility (mole fraction) for O=c1cc(CO)occ1O .
a: 0.00686

====

Conditions: in ethanol, 313.15 K
Result type: solubility (mole fraction)
One number for each entry.

q: Please report the recorded solubility (mole fraction) for O=c1cc(CO)occ1O .
a: 0.013

====

Settings: in n-propanol, 288.15 K
Result type: solubility (mole fraction)

q: Please report the recorded solubility (mole fraction) for O=c1cc(CO)occ1O .
a: 0.00339

====

Conditions: in ethanol, 293.15 K
Result type: solubility (mole fraction)
Numbers only.

q: Please report the recorded solubility (mole fraction) for O=c1cc(CO)occ1O .
a: 0.00595

====

Conditions: in 1,4-dioxane, 318.15 K
Result type: solubility (mole fraction)
One number for each entry.

q: Please report the recorded solubility (mole fraction) for O=c1cc(CO)occ1O .
a: 0.0209

====

Settings: in ethanol, 288.15 K
Result type: solubility (mole fraction)
Answers are plain numbers.

q: Please report the recorded solubility (mole fraction) for O=c1cc(CO)occ1O .
a: 0.00459

====

Details: in acetic acid, 313.15 K
Result type: solubility (mole fraction)
One number for each entry.

q: Please report the recorded solubility (mole fraction) for O=c1cc(CO)occ1O .
a: 0.0293

====

Settings: in water, 303.15 K
Result type: solubility (mole fraction)
Numbers only.

q: Please report the recorded solubility (mole fraction) for O=c1cc(CO)occ1O .
a: 0.00679

====

Conditions: in 2-ethoxyethanol, 288.15 K
Result type: solubility (mole fraction)
Give bare numbers.

q: Please report the recorded solubility (mole fraction) for O=c1cc(CO)occ1O .
a: 0.0177

====

Settings: in acetone, 283.15 K
Result type: solubility (mole fraction)

q: Please report the recorded solubility (mole fraction) for O=c1cc(CO)occ1O .
a: 0.00276

====

Conditions: in n-propanol, 298.15 K
Result type: solubility (mole fraction)

q: Please report the recorded solubility (mole fraction) for O=c1cc(CO)occ1O .
a: 0.00524

====

Details: in water, 318.15 K
Result type: solubility (mole fraction)
One number for each entry.

q: Please report the recorded solubility (mole fraction) for O=c1cc(CO)occ1O .
a: 0.0143

====

Details: in n-propanol, 318.15 K
Result type: solubility (mole fraction)
Answers are plain numbers.

q: Please report the recorded solubility (mole fraction) for O=c1cc(CO)occ1O .
a: 0.0116

====

Conditions: in ethyl acetate, 278.15 K
Result type: solubility (mole fraction)
Answers are plain numbers.

q: Please report the recorded solubility (mole fraction) for O=c1cc(CO)occ1O .
a: 0.000804

====

Conditions: in NMP, 278.15 K
Result type: solubility (mole fraction)
Numbers only.

q: Please report the recorded solubility (mole fraction) for O=c1cc(CO)occ1O .
a: 0.17

====

Conditions: in 2-ethoxyethanol, 318.15 K
Result type: solubility (mole fraction)

q: Please report the recorded solubility (mole fraction) for O=c1cc(CO)occ1O .
a: 0.0381

====

Conditions: in DMAc, 288.15 K
Result type: solubility (mole fraction)
Give bare numbers.

q: Please report the recorded solubility (mole fraction) for O=c1cc(CO)occ1O .
a: 0.165

====

Conditions: in acetic acid, 328.15 K
Result type: solubility (mole fraction)

q: Please report the recorded solubility (mole fraction) for O=c1cc(CO)occ1O .
a: 0.0511

====

Settings: in DMAc, 278.15 K
Result type: solubility (mole fraction)
One number for each entry.

q: Please report the recorded solubility (mole fraction) for O=c1cc(CO)occ1O .
a: 0.148

====

Settings: in DMF, 293.15 K
Result type: solubility (mole fraction)
One number for each entry.

q: Please report the recorded solubility (mole fraction) for O=c1cc(CO)occ1O .
a: 0.123

====

Conditions: in methanol, 278.15 K
Result type: solubility (mole fraction)
Numbers only.

q: Please report the recorded solubility (mole fraction) for O=c1cc(CO)occ1O .
a: 0.00492

====

Conditions: in acetic acid, 298.15 K
Result type: solubility (mole fraction)
One number for each entry.

q: Please report the recorded solubility (mole fraction) for O=c1cc(CO)occ1O .
a: 0.0169

====

Conditions: in 2-ethoxyethanol, 298.15 K
Result type: solubility (mole fraction)
One number for each entry.

q: Please report the recorded solubility (mole fraction) for O=c1cc(CO)occ1O .
a: 0.0233

====

Conditions: in ethanol, 283.15 K
Result type: solubility (mole fraction)
Numbers only.

q: Please report the recorded solubility (mole fraction) for O=c1cc(CO)occ1O .
a: 0.00374

====

Settings: in 2-ethoxyethanol, 313.15 K
Result type: solubility (mole fraction)
One number for each entry.

q: Please report the recorded solubility (mole fraction) for O=c1cc(CO)occ1O .
a: 0.034

====

Details: in water, 288.15 K
Result type: solubility (mole fraction)
Numbers only.

q: Please report the recorded solubility (mole fraction) for O=c1cc(CO)occ1O .
a: 0.00353

====

Conditions: in 2-methoxyethanol, 308.15 K
Result type: solubility (mole fraction)

q: Please report the recorded solubility (mole fraction) for O=c1cc(CO)occ1O .
a: 0.0431

====

Conditions: in NMP, 293.15 K
Result type: solubility (mole fraction)
One number for each entry.

q: Please report the recorded solubility (mole fraction) for O=c1cc(CO)occ1O .
a: 0.193

====

Settings: in ethyl acetate, 298.15 K
Result type: solubility (mole fraction)
Answers are plain numbers.

q: Please report the recorded solubility (mole fraction) for O=c1cc(CO)occ1O .
a: 0.00201

====

Details: in methanol, 323.15 K
Result type: solubility (mole fraction)

q: Please report the recorded solubility (mole fraction) for O=c1cc(CO)occ1O .
a: 0.0267

====

Conditions: in ethyl acetate, 303.15 K
Result type: solubility (mole fraction)
Numbers only.

q: Please report the recorded solubility (mole fraction) for O=c1cc(CO)occ1O .
a: 0.00242

====

Settings: in 1,4-dioxane, 308.15 K
Result type: solubility (mole fraction)
Give bare numbers.

q: Please report the recorded solubility (mole fraction) for O=c1cc(CO)occ1O .
a: 0.0153

====

Settings: in methanol, 283.15 K
Result type: solubility (mole fraction)
Numbers only.

q: Please report the recorded solubility (mole fraction) for O=c1cc(CO)occ1O .
a: 0.00606

====

Settings: in DMSO, 298.15 K
Result type: solubility (mole fraction)
One number for each entry.

q: Please report the recorded solubility (mole fraction) for O=c1cc(CO)occ1O .
a: 0.249

====

Conditions: in DMSO, 303.15 K
Result type: solubility (mole fraction)
Numbers only.

q: Please report the recorded solubility (mole fraction) for O=c1cc(CO)occ1O .
a: 0.259

====

Conditions: in NMP, 323.15 K
Result type: solubility (mole fraction)
Give bare numbers.

q: Please report the recorded solubility (mole fraction) for O=c1cc(CO)occ1O .
a: 0.241

====

Settings: in NMP, 313.15 K
Result type: solubility (mole fraction)
Numbers only.

q: Please report the recorded solubility (mole fraction) for O=c1cc(CO)occ1O .
a: 0.223

====

Details: in 2-ethoxyethanol, 283.15 K
Result type: solubility (mole fraction)
Answers are plain numbers.

q: Please report the recorded solubility (mole fraction) for O=c1cc(CO)occ1O .
a: 0.015

====

Conditions: in acetone, 288.15 K
Result type: solubility (mole fraction)
Numbers only.

q: Please report the recorded solubility (mole fraction) for O=c1cc(CO)occ1O .
a: 0.00324

====

Details: in methanol, 313.15 K
Result type: solubility (mole fraction)

q: Please report the recorded solubility (mole fraction) for O=c1cc(CO)occ1O .
a: 0.0189

====

Conditions: in acetone, 293.15 K
Result type: solubility (mole fraction)
Numbers only.

q: Please report the recorded solubility (mole fraction) for O=c1cc(CO)occ1O .
a: 0.00383
